Each entry below carries its reported pKd.
biological target: GRASP, Q7Z6J2; experiment: holdup assay; design: key: below the threshold = too weak to quantify, mostly under pKd 3.1 to 4; conditions: plain residues with an end cap or a label only (N-terminal biotin on a linker: ttds)
Sequence (Q7Z6J2 96-193): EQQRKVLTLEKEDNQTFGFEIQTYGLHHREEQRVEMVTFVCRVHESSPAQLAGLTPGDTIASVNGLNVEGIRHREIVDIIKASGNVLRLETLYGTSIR
Give the value as a plain number.

| binder | numeric-value |
| --- | --- |
| STLTIFETAL [ABCC4, O15439] | 4.74 |

With those in mind, consider the next binder.
Data request: Could you share which pKd value was measured for IDNDTESTAL [ARHGAP17, Q68EM7] ?
Data returned: 4.77
